Each entry below carries its reported self-splicing fitness (ln).
Experiment: self-splicing fitness, log relative to wild type (ln ratio); higher = more splicing; Tetrahymena group I intron in knt gene, E. coli kanamycin selection, DiMSum; sequences stand for … in CUCUCU…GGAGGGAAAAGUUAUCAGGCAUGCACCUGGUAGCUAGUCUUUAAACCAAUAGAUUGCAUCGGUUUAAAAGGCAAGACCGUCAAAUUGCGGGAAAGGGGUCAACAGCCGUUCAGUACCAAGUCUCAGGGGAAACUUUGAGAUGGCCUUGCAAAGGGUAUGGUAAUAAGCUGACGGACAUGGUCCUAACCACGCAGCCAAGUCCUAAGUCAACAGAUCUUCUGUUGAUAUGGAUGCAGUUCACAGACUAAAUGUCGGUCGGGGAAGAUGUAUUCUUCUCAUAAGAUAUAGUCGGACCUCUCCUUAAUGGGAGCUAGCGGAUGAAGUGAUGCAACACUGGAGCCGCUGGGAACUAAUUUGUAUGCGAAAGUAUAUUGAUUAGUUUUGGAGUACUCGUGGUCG;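 further: selection with 25 µg/mL kanamycin versus none on LB agar overnight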
Details: 30 °C

sequence-text: CCGCAGCAAUAUUACGCCAA
self-splicing fitness (ln): -3.73
--
sequence-text: AGCGAGCAAUAUUACGUUAG
self-splicing fitness (ln): -2.38
--
sequence-text: AGGAAGCAAUAUUACGACCG
self-splicing fitness (ln): -0.0847
--
sequence-text: CCUCAGCAAUAUUACGCUCG
self-splicing fitness (ln): -2.8
--
sequence-text: AAACAGCAAUAUUACGUUGU
self-splicing fitness (ln): -4.04

Tell us which self-splicing fitness (ln) value is on record for `AUAUAGCAAUAUUACGUAGA`
-2.19

Tell us which self-splicing fitness (ln) value is on record for `GGAGAGCAAUAUUACGGAUC`
-1.91

Tell us which self-splicing fitness (ln) value is on record for `CUCCAGCAAUAUUACGUCGG`
-3.14

Tell us which self-splicing fitness (ln) value is on record for `UGGGAGCAAUAUUACGUAAG`
-0.459

Tell us which self-splicing fitness (ln) value is on record for `UUUAAGCAAUAUUACGAUUC`
-2.23

Tell us which self-splicing fitness (ln) value is on record for `CAGGAGCAAUAUUACGUCUG`
-2.47

Tell us which self-splicing fitness (ln) value is on record for `ACAAAGCAAUAUUACGGGGC`
-3.69

Tell us which self-splicing fitness (ln) value is on record for `CCACAGCAAUAUUACGGGUU`
-3.68

Tell us which self-splicing fitness (ln) value is on record for `GCAGAGCAAUAUUACGCGUG`
-2.7

Tell us which self-splicing fitness (ln) value is on record for `UGCGAGCAAUAUUACGUGGG`
-4.32

Tell us which self-splicing fitness (ln) value is on record for `UGUUAGCAAUAUUACGCAGU`
-3.62

* * *

Test: self-splicing fitness, log relative to wild type (ln ratio); higher = more splicing; Tetrahymena group I intron in knt gene, E. coli kanamycin selection, DiMSum; sequences stand for … in CUCUCU…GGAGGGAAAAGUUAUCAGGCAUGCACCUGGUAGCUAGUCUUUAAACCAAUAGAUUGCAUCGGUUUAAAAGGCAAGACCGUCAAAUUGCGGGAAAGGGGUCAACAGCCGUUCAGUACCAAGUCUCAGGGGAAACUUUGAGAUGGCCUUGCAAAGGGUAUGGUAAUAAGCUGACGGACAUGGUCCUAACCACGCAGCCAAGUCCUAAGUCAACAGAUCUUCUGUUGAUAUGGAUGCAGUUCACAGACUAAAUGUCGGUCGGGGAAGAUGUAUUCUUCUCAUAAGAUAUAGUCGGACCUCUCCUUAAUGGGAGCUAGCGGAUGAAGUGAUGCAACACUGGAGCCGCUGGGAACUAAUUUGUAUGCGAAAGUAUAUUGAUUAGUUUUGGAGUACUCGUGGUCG
Conditions: 30 °C
Each entry below carries its reported self-splicing fitness (ln).
No unit in the answer, please; the number alone is enough.

Some entries whose results are on file:
sequence-text: GGUCAGCAAUAUUACGUAAA
endpoint-result: 0.301

sequence-text: GAUUAGCAAUAUUACGGGCA
endpoint-result: -1.13

sequence-text: ACUCAGCAAUAUUACGCGUA
endpoint-result: -0.747

sequence-text: GCGUAGCAAUAUUACGGAUG
endpoint-result: -1.41

Read the next record carefully.
Tell us which self-splicing fitness (ln) value is on record for `AUCUAGCAAUAUUACGCUCU`
-0.469

* * *

Experiment: self-splicing fitness, log relative to wild type (ln ratio); higher = more splicing; Tetrahymena group I intron in knt gene, E. coli kanamycin selection, DiMSum; sequences stand for … in CUCUCU…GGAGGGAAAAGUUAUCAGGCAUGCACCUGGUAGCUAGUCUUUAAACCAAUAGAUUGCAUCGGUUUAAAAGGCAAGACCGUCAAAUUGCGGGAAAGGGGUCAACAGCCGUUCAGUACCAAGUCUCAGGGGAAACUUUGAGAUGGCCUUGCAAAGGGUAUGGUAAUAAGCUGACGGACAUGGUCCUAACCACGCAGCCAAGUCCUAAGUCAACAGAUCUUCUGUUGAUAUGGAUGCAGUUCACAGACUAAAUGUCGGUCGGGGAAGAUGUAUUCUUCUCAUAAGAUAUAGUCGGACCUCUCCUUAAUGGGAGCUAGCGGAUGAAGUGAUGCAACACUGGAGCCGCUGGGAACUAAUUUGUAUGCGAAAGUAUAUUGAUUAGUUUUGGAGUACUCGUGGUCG
Conditions: 30 °C
Each entry below carries its reported self-splicing fitness (ln).

Some entries whose results are on file:
sequence-text: CCGUAGCAAUAUUACGGGAG
self-splicing fitness (ln): -3.35

sequence-text: CGCGAGCAAUAUUACGGGUG
self-splicing fitness (ln): -2.14

sequence-text: ACGCAGCAAUAUUACGGUUC
self-splicing fitness (ln): -3.63

sequence-text: UCUAAGCAAUAUUACGCAUG
self-splicing fitness (ln): -1.88

sequence-text: GUCCAGCAAUAUUACGAUCG
self-splicing fitness (ln): -1.8

Tell us which self-splicing fitness (ln) value is on record for `GAGUAGCAAUAUUACGGAUG`
-1.42

Tell us which self-splicing fitness (ln) value is on record for `CGAGAGCAAUAUUACGUUGG`
-3.78

Tell us which self-splicing fitness (ln) value is on record for `AUGAAGCAAUAUUACGCCCA`
0.226

Tell us which self-splicing fitness (ln) value is on record for `CGGUAGCAAUAUUACGGUGU`
-3.24

Tell us which self-splicing fitness (ln) value is on record for `CCGGAGCAAUAUUACGGUUG`
-1.16

* * *

Assay: self-splicing fitness, log relative to wild type (ln ratio); higher = more splicing; Tetrahymena group I intron in knt gene, E. coli kanamycin selection, DiMSum; sequences stand for … in CUCUCU…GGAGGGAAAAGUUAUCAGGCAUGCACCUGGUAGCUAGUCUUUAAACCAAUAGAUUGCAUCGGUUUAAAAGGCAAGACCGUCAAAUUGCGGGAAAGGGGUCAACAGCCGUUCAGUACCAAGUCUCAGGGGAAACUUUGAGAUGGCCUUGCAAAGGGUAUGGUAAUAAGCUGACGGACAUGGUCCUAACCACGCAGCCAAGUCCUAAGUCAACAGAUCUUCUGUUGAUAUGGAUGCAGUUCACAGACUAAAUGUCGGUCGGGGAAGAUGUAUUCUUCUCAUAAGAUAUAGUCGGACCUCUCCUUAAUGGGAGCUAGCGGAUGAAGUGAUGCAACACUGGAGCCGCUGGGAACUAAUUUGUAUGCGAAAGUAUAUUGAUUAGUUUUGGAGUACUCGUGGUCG
Settings: 37 °C
Lab note: compare self-splicing fitness (ln) against -2. Equal or greater, write Criterion met. Smaller, write Criterion not met.

sequence-text: GGAAAGCAAUAUUACGAACU
assigned-category: Criterion met

sequence-text: AAUAAGCAAUAUUACGUUAG
assigned-category: Criterion not met

Now consider the entry below.
Would you say `AAAUAGCAAUAUUACGUUAG` shows self-splicing fitness (ln) at minimum -2?
Criterion not met

* * *

Each entry below carries its reported self-splicing fitness (ln).
Assay: self-splicing fitness, log relative to wild type (ln ratio); higher = more splicing; Tetrahymena group I intron in knt gene, E. coli kanamycin selection, DiMSum; sequences stand for … in CUCUCU…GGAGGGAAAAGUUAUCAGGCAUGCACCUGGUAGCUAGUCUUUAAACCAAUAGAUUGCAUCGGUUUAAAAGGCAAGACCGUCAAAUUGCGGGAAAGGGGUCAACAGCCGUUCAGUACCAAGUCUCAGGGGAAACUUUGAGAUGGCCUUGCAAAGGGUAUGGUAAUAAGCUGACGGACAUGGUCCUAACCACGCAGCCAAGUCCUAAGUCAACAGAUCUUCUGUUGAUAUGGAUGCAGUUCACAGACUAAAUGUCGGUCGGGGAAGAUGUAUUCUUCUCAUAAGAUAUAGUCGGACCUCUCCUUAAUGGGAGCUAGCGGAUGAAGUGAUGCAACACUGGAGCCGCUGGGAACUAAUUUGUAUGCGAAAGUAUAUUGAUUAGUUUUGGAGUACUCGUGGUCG
Settings: 30 °C
No unit in the answer, please; the number alone is enough.

sequence-text: UCCAAGCAAUAUUACGUUUA
self-splicing fitness (ln): -3.15
--
sequence-text: CGACAGCAAUAUUACGGAGU
self-splicing fitness (ln): -3.91

Tell us which self-splicing fitness (ln) value is on record for `ACUCAGCAAUAUUACGGAUU`
-0.597

Tell us which self-splicing fitness (ln) value is on record for `AGAUAGCAAUAUUACGUGAA`
-1.95

Tell us which self-splicing fitness (ln) value is on record for `UCCGAGCAAUAUUACGUUGA`
-2.17

Tell us which self-splicing fitness (ln) value is on record for `GCCCAGCAAUAUUACGCGUG`
-3.68

Tell us which self-splicing fitness (ln) value is on record for `UCCUAGCAAUAUUACGCAUC`
-2.3

Tell us which self-splicing fitness (ln) value is on record for `UCUUAGCAAUAUUACGGGGU`
-3.44

Tell us which self-splicing fitness (ln) value is on record for `AGAGAGCAAUAUUACGGACC`
-2.79

Tell us which self-splicing fitness (ln) value is on record for `AUUUAGCAAUAUUACGUGUC`
-2.55

Tell us which self-splicing fitness (ln) value is on record for `GUUGAGCAAUAUUACGUAUA`
-2.17

Tell us which self-splicing fitness (ln) value is on record for `GACAAGCAAUAUUACGCAUC`
-4.33

Tell us which self-splicing fitness (ln) value is on record for `GGACAGCAAUAUUACGCUAG`
-1.85

Tell us which self-splicing fitness (ln) value is on record for `GCGCAGCAAUAUUACGCGAC`
-1.77

Tell us which self-splicing fitness (ln) value is on record for `GAUCAGCAAUAUUACGCGUU`
-2.22

Tell us which self-splicing fitness (ln) value is on record for `CUCGAGCAAUAUUACGCGAG`
-3.97
